Taken from the supplement of paper PMC6555819.

- System: RARg:RXRa (NR concentration 270 nM, RXRa partner concentration 90 nM)
- MEASUREMENT PROTOCOL: PBM binding z-score (relative to random genomic background probes); higher = stronger binding; sequences stand for … in GC…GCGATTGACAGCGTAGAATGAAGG
Assignment: determine reported PBM binding z-score for the given sequences.
Please reply with the value in numeric form only.

What value of measured PBM binding z-score is listed for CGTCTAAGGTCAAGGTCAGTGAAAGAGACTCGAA ?
7.24

What value of measured PBM binding z-score is listed for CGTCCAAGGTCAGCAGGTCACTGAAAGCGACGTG ?
7.24

What value of measured PBM binding z-score is listed for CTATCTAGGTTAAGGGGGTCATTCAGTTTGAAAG ?
5.18

What value of measured PBM binding z-score is listed for ATCGAAAGGTCGAAGGTGAGTCTACCCACCCGAA ?
4.41

What value of measured PBM binding z-score is listed for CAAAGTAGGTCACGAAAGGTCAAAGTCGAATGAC ?
8.06

What value of measured PBM binding z-score is listed for CCGAGTAGGTTACGAGGGGGCATTAAGTGCGAAT ?
3.1

What value of measured PBM binding z-score is listed for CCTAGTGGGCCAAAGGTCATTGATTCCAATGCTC ?
5.89

What value of measured PBM binding z-score is listed for TAGCCTAGGTCATAGGCCAGTATACCACGCGAAC ?
3.89

What value of measured PBM binding z-score is listed for CCGAGTAGGTAACGAGGGGGCATTCAGTGCGAAT ?
1.9

What value of measured PBM binding z-score is listed for TCGAGTAGGTTACGGGGTCATTCAGGGATGAAGA ?
5.96

What value of measured PBM binding z-score is listed for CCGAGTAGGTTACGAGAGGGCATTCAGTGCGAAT ?
1.75

What value of measured PBM binding z-score is listed for CTCGAAAGGTCGTGGTCAGGTGAGTATACCAAAC ?
5.58

What value of measured PBM binding z-score is listed for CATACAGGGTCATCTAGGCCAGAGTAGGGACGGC ?
5.16

What value of measured PBM binding z-score is listed for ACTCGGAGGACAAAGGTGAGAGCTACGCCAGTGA ?
2.63

What value of measured PBM binding z-score is listed for CCTACTGGGCCACGAAAGGTCCTTGATTCAGTGA ?
0.00978

What value of measured PBM binding z-score is listed for ATATGTCGGTTAGGGTCATTCAGAAAGTAGGGAA ?
3.91

What value of measured PBM binding z-score is listed for CCTACTGGGGCACGAAAGGTCATTGATTCAGTGA ?
4.75

What value of measured PBM binding z-score is listed for CCGAGTAGGTTACGAGGGGGCATTCCGTGCGAAT ?
3.09

What value of measured PBM binding z-score is listed for CAAAGTAGGTCAAGAGGTCAAAGTCCGCTTCCCG ?
8.31

What value of measured PBM binding z-score is listed for CCTGCTAGGTCAAGGGTCAGCTAAAGCAGCTCGC ?
6.68

What value of measured PBM binding z-score is listed for ATATGTAGGTAAGGGTCATTCAGAAAGTAGGGAA ?
4.21

What value of measured PBM binding z-score is listed for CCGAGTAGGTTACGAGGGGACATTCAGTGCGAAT ?
1.25

What value of measured PBM binding z-score is listed for ATATGTAGGTTAGGGGCATTCAGAAAGTAGGGAA ?
1.14

What value of measured PBM binding z-score is listed for ATATTTAGGTTAGGGTCATTCAGAAAGTAGGGAA ?
4.06

What value of measured PBM binding z-score is listed for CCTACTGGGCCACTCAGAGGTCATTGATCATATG ?
4.46

What value of measured PBM binding z-score is listed for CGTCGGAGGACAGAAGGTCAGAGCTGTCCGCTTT ?
3.56

What value of measured PBM binding z-score is listed for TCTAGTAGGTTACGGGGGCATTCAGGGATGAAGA ?
3.98

What value of measured PBM binding z-score is listed for GCATACGGGTCAAAGGTTATAGCATGAATAGAAT ?
6.95

What value of measured PBM binding z-score is listed for CGAACTAGGTCACTAGGACAGTGAAGAGGTTGGA ?
3.58

What value of measured PBM binding z-score is listed for CAAAATAGGTCAAGAGGTCAAAGTCCGCTTCCCG ?
8.39

What value of measured PBM binding z-score is listed for CTATGTAGGTTCAGGGGGTCATTCAGTTTGAAAG ?
5.72

What value of measured PBM binding z-score is listed for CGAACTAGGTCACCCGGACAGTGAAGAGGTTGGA ?
4.48

* * *

- System: PXR homodimer (NR concentration 270 nM)
- MEASUREMENT PROTOCOL: PBM binding z-score (relative to random genomic background probes); higher = stronger binding; sequences stand for … in GC…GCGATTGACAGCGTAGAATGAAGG
Assignment: determine reported PBM binding z-score for the given sequences.
Please reply with the value in numeric form only.

What value of measured PBM binding z-score is listed for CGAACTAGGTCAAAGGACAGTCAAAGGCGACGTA ?
-0.21

What value of measured PBM binding z-score is listed for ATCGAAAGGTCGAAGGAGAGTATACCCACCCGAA ?
0.0516

What value of measured PBM binding z-score is listed for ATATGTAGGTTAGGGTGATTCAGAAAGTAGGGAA ?
1.31

* * *

- Tested on: PPARg:RXRa 30nM:10nM, anti-RXR (NR concentration 30 nM, RXRa partner concentration 10 nM)
- MEASUREMENT PROTOCOL: PBM binding z-score (relative to random genomic background probes); higher = stronger binding; sequences stand for … in GC…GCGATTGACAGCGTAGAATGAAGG
Assignment: determine reported PBM binding z-score for the given sequences.
Please reply with the value in numeric form only.

What value of measured PBM binding z-score is listed for TCGAGTAGGTTACGGGGGCGTTCAGGGATGAAGA ?
2.93

What value of measured PBM binding z-score is listed for ATATGTAGGTTAGGGTAATTCAGAAAGTAGGGAA ?
2.13

What value of measured PBM binding z-score is listed for CGAACTAGGTCACCAGGACAGTGTAGAGGTTGGA ?
4.68

What value of measured PBM binding z-score is listed for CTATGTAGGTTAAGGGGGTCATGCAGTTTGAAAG ?
6.71

What value of measured PBM binding z-score is listed for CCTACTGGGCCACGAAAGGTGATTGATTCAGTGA ?
0.232

What value of measured PBM binding z-score is listed for AATACAGGGTCACTAGGCCAGAGTGGGTACGAAT ?
3.08

What value of measured PBM binding z-score is listed for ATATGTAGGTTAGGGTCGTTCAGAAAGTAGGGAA ?
2.44

What value of measured PBM binding z-score is listed for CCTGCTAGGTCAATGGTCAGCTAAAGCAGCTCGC ?
3.2

What value of measured PBM binding z-score is listed for AATACAGGGTCACTAGGTCAGAGTAGGTACGAAT ?
4.74

What value of measured PBM binding z-score is listed for CGTCCAAGGTCAGATAGGTCAGTGAATGCCGAGT ?
0.662

What value of measured PBM binding z-score is listed for CAATGTAGGTTAAGGGGGTCATTCAGTTTGAAAG ?
6.58

What value of measured PBM binding z-score is listed for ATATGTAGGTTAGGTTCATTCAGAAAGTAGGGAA ?
2.49

What value of measured PBM binding z-score is listed for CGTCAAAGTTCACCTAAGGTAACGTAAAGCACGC ?
2.48

What value of measured PBM binding z-score is listed for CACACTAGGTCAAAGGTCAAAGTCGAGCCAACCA ?
14

What value of measured PBM binding z-score is listed for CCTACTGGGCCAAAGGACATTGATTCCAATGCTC ?
5.26

What value of measured PBM binding z-score is listed for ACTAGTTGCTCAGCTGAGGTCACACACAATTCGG ?
0.448

What value of measured PBM binding z-score is listed for TAGCATAGGTCATGCGGGCCAGTATAGTGTCGGC ?
0.97

What value of measured PBM binding z-score is listed for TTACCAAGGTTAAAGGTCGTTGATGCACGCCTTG ?
8.79

What value of measured PBM binding z-score is listed for TCTAGTTGGTCGCGGAGGTCACACACGACGGGTA ?
2.94

What value of measured PBM binding z-score is listed for CGAACTAGGTCAAAGGACGGTGAAAGGCGACGTA ?
7.43

What value of measured PBM binding z-score is listed for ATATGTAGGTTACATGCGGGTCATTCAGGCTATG ?
2.6

What value of measured PBM binding z-score is listed for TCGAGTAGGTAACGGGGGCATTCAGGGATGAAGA ?
2.68

What value of measured PBM binding z-score is listed for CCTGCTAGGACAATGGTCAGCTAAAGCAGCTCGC ?
-0.505

What value of measured PBM binding z-score is listed for ATATGTGGGTTATCGGGTCATTCAGTTTGCGCAT ?
3.08

What value of measured PBM binding z-score is listed for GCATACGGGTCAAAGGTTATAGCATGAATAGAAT ?
10.1

What value of measured PBM binding z-score is listed for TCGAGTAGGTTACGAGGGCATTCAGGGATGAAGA ?
1.61

What value of measured PBM binding z-score is listed for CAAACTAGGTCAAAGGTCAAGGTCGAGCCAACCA ?
15.3

What value of measured PBM binding z-score is listed for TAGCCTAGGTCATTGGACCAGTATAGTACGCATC ?
1.04

What value of measured PBM binding z-score is listed for ATTTGTAGGTTATCGGGTCATTCAGTTTGCGCAT ?
2.93
